- TEST SYSTEM: BaF3 TELJAK3 cells (Homo sapiens)
- Construct: fused on or other part: TEL (ETV6) N-terminal part, coding nucleotides 1-487, serves as the oligomerising partner; It is fused through a Sal I site to the JAK3 kinase domain and expressed from pTRE2 in BaF3 cells bearing pTET-off; P41212 (Transcription factor ETV6)
- Sequence (P52333 whole entry, change not shown, the tested form may be a part): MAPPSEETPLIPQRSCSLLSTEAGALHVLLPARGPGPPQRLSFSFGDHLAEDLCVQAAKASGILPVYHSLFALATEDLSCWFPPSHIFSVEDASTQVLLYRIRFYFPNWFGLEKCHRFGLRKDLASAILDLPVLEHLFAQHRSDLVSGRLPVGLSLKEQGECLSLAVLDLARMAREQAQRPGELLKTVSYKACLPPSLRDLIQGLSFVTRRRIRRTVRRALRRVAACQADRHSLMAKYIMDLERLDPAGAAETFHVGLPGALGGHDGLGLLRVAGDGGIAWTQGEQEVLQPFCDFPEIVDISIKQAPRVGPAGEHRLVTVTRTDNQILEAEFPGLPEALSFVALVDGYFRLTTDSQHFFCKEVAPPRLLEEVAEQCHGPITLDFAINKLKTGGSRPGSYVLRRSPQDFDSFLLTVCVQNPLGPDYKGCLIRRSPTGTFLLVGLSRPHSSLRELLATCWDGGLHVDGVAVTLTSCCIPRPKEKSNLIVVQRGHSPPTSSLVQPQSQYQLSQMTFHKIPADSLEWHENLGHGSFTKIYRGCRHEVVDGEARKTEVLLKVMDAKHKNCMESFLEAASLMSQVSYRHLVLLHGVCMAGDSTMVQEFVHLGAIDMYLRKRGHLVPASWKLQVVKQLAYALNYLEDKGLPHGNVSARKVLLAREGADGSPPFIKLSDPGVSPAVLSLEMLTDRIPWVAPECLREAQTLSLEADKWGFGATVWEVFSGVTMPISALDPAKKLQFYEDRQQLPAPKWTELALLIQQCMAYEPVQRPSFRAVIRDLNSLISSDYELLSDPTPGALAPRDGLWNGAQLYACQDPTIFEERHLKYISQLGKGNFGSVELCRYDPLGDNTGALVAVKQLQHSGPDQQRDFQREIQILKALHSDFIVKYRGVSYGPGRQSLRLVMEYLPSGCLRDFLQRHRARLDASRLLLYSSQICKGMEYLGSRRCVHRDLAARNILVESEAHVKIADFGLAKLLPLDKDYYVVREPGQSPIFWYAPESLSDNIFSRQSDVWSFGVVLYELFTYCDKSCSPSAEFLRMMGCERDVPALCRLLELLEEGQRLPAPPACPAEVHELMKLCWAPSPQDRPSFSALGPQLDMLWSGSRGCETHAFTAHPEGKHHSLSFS
- PROCEDURE SUMMARY: Cellular screening, BaF3 TEL:JAK3 cells, Alamar Blue
- Assay type: cell-based
- COND: 40 hr, read-out: BafT_J3 IC50_nM
MEASURE: GI50

These solved cases illustrate the format of a correct answer.
Cc1cnc(Nc2ccc(N3CCOCC3)cc2)nc1Sc1ccc(C=O)cc1 < 5000 nM
C=CC(=O)Nc1ccc(Sc2nc(Nc3ccc(OC)c(OC)c3)ncc2C)cc1 < 1000 nM
Cc1cnc(Nc2ccc(N3CCOCC3)cc2)nc1Sc1ccc(N2C(=O)COCC2=O)cc1 > 20000 nM
C=CC(=O)Nc1ccc(Sc2ccnc(Nc3ccc(N4CCOCC4)cc3)n2)cc1OC < 5000 nM
C=CC(=O)Nc1ccc(Sc2nc(Nc3ccc(CNS(C)(=O)=O)cc3)ncc2C)cc1 < 1000 nM

Look up GI50 for the entries below, preserving their order.
1. N#Cc1nccc(Sc2ccc(Sc3ccnc(Nc4ccc(N5CCOCC5)cc4)n3)cc2)n1
2. C=CC(=O)Nc1ccc(Sc2nc(Nc3ccc(N4CCN(C)CC4)cc3)ncc2C)cc1
3. C=CC(=O)Nc1ccc(Sc2nc(Nc3cccc(CO)c3)ncc2C)cc1

1: < 5000 nM; 2: < 1000 nM; 3: < 1000 nM

====

Would you mind telling me the reported pIC50 of each entry?
- Tested on: BaF3 wild-type cells
- PROCEDURE SUMMARY: Cellular screening, BaF3 wild-type cells, Alamar Blue
- Assay type: cell-based
- COND: Mus musculus, 40 hr, read-out: BAF3wt IC50_nM
pIC50: −log10 of the molar value.

These solved cases illustrate the format of a correct answer.
COMPOUND	TEST SYSTEM	pIC50
O=C(/C=C/Cl)Nc1ccc(Sc2ccnc(Nc3ccc(N4CCOCC4)cc3)n2)cc1	BaF3 wild-type cells	< 4.70
Nc1ccc(Sc2nc(Nc3cccc(N4CCOCC4)c3)ncc2I)cc1	BaF3 wild-type cells	> 5.30

Look up pIC50 for the entries below, preserving their order.
1. Nc1ccc(Sc2nc(Nc3ccc(N4CCOCC4)cc3)ncc2Cl)cc1
2. C=CC(=O)Nc1ccc(Sc2nc(Nc3ccc(N4CCOCC4)cc3)ncc2C)cc1CC
3. N#Cc1ncn(Cc2ccc(Sc3ccnc(Nc4ccc(N5CCOCC5)cc4)n3)cc2)c1C#N
4. CON(C)C(=O)c1ccc(Sc2nc(Nc3ccc(N4CCOCC4)cc3)ncc2C)cc1
5. O=C(CCl)Nc1cccc(Sc2ccnc(Nc3ccc(N4CCOCC4)cc3)n2)c1
6. N#CCc1ccc(Sc2ccnc(Nc3ccc(N4CCOCC4)cc3)n2)cc1

> 4.70
< 4.70
> 5.30
< 4.70
> 5.30
< 4.70

Look up pIC50 for the entries below, preserving their order.
1. C=CC(=O)Nc1ccc(Sc2nc(Nc3ccc(N4CCOCC4)cc3)ncc2Cl)cc1
2. C=CC(=O)Nc1cccc(Nc2nccc(SC)n2)c1

< 4.70
> 4.70

Look up pIC50 for the entries below, preserving their order.
1. C=CC(=O)NCc1cccc(Sc2ccnc(Nc3ccc(N4CCOCC4)cc3)n2)c1
2. C=CC(=O)Nc1ccc(Sc2ccnc(Nc3ccc(Cl)cc3)n2)cc1

["< 4.70", "< 4.70"]

====

- TEST SYSTEM: Human hemopoietic cell protein-tyrosine kinase (HCK) (Homo sapiens, UniProt P08631)
- Sequence (P08631 233-526): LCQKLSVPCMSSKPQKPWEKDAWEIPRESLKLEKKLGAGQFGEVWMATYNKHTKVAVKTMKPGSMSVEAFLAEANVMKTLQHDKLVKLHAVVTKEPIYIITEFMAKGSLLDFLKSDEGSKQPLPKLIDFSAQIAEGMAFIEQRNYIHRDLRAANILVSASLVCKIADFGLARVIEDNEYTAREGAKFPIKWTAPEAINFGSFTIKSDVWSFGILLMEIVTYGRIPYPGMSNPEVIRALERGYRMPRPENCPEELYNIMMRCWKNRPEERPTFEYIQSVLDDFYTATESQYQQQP
MEASURE: IC50

What measured IC50 goes with Oc1cccc(Sc2ccnc(Nc3ccc(N4CCOCC4)cc3)n2)c1 [Compound 38] ?
< 500 nM

====

Would you mind telling me the reported inhibition at 0.5 µM of each entry?
- TEST SYSTEM: BTK(h) (Homo sapiens, UniProt Q06187)
- Construct: purchased Upstate Biotechnology (Dundee, UK), KinaseProfiler service
- Sequence (Q06187 whole entry): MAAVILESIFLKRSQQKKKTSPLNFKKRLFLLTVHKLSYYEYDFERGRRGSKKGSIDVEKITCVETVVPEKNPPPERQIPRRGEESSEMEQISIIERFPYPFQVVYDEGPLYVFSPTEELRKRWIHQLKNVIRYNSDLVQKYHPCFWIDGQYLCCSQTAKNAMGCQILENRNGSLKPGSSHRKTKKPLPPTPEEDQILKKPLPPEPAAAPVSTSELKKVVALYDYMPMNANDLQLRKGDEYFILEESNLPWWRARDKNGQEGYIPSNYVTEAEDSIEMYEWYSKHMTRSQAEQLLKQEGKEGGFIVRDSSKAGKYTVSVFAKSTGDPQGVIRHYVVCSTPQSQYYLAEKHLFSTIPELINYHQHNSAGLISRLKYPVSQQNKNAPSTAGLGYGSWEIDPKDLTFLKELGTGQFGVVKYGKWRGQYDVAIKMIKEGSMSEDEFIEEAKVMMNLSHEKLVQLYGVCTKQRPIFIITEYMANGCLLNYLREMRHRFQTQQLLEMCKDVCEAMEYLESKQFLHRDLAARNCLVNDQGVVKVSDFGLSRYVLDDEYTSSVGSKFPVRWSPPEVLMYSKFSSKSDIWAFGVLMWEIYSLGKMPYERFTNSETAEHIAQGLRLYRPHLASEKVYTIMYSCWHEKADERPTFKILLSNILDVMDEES
- PROCEDURE SUMMARY: Upstate KinaseProfiler enzyme assay, BTK
- Type: biochemical
- COND: 500 nM compound; read-out: Percent inhibition at 500 nM BTK(h)
Give bare numbers, in %.

COMPOUND	TEST SYSTEM	inhibition at 0.5 µM (%)
C=CC(=O)Nc1cccc(Sc2ccnc(Nc3ccc(OC)cc3)n2)c1 [Compound 120]	BTK(h) (Homo sapiens, UniProt Q06187)	100
CC#CC(=O)Nc1ccc(Sc2nc(Nc3ccc(N4CCOCC4)cc3)ncc2C)cc1 [Compound 125]	BTK(h) (Homo sapiens, UniProt Q06187)	100
C=CC(=O)Nc1ccc(Sc2nc(Nc3ccc(C4CCN(C)CC4)cc3)ncc2C)cc1 [Compound 246]	BTK(h) (Homo sapiens, UniProt Q06187)	97
C=CC(=O)Nc1ccc(Sc2ccnc(Nc3ccc(C#N)cc3)n2)cc1 [Compound 131]	BTK(h) (Homo sapiens, UniProt Q06187)	100
C=CC(=O)Nc1ccc(Sc2ccnc(Nc3ccc(F)c(C#N)c3)n2)cc1 [Compound 354]	BTK(h) (Homo sapiens, UniProt Q06187)	100

Look up inhibition at 0.5 µM for the entries below, preserving their order.
1. N#Cc1nnn(Cc2ccc(Sc3ccnc(Nc4ccc(N5CCOCC5)cc4)n3)cc2)n1 [Compound 156]
2. C=CC(=O)Nc1ccc(Sc2ccnc(Nc3cccc(C(=O)OC)c3)n2)cc1 [Compound 356]

81
100

Look up inhibition at 0.5 µM for the entries below, preserving their order.
1. C=CC(=O)Nc1ccc(Sc2nc(Nc3ccc(CNS(C)(=O)=O)cc3)ncc2C)cc1 [Compound 294]
2. C=CC(=O)Nc1ccc(Sc2ccnc(Nc3ccccc3)n2)cc1 [Compound 350]
3. C=CC(=O)N(C)c1ccc(Sc2nc(Nc3ccc(N4CCOCC4)cc3)ncc2C)cc1 [Compound 173]
4. C=CC(=O)Nc1ccc(Sc2nc(Nc3ccc(N4CCC(CO)CC4)cc3)ncc2C)cc1 [Compound 286]
5. C=CC(=O)Nc1ccc(Sc2ccnc(Nc3ccc(N4CCOCC4)cc3)n2)cc1 [Compound 25]
6. Cc1cnc(Nc2ccc(N3CCOCC3)cc2)nc1Sc1ccc(N2C(=O)CSCC2=O)cc1 [Compound 231]
7. C=CC(=O)Nc1ccc(Sc2nc(Nc3ccc(N4CCC(C(=O)OCC)CC4)cc3)ncc2C)cc1 [Compound 292]
8. C=CC(=O)Nc1ccc(Sc2nc(Nc3ccc(OC)c(OC)c3)ncc2C)cc1 [Compound 241]

77
100
93
74
83
91
3
88

====

- TEST SYSTEM: Bmx(h) (Homo sapiens)
- Construct: purchased Upstate Biotechnology (Dundee, UK), KinaseProfiler service
- Sequence (P51813 whole entry): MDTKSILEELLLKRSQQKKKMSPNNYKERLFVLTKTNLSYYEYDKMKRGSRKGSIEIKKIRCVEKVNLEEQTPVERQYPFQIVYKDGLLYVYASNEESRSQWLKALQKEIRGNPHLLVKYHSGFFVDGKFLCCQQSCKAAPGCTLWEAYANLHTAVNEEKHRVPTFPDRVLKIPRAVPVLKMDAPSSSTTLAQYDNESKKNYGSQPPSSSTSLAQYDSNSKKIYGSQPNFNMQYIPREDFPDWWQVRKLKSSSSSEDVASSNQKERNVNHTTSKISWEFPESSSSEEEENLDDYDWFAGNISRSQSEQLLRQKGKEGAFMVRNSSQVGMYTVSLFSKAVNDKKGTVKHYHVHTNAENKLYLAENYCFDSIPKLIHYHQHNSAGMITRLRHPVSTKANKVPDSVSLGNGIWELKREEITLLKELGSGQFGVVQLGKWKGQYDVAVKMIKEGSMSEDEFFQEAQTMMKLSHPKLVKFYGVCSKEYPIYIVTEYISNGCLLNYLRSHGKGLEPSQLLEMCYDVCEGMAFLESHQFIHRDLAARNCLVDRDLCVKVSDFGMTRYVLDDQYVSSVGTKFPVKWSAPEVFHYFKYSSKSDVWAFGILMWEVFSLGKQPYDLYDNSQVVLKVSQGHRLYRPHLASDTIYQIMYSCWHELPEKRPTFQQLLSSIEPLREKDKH
- PROCEDURE SUMMARY: Upstate KinaseProfiler enzyme assay, Bmx
- Assay type: biochemical
- COND: 500 nM compound; read-out: Percent inhibition at 500 nM Bmx(h)
Would you mind telling me the reported inhibition at 0.5 µM of each entry?
Numbers only, in %.

These solved cases illustrate the format of a correct answer.
COMPOUND	TEST SYSTEM	ENDPOINT UNIT	inhibition at 0.5 µM
C=CC(=O)Nc1ccc(Sc2ccnc(Nc3ccc(N4CCOCC4)cc3)n2)c(Cl)c1C [Compound 161]	Bmx(h) (Homo sapiens)	%	100
C=CC(=O)N(C)c1ccc(Sc2nc(Nc3ccc(N4CCOCC4)cc3)ncc2C)cc1 [Compound 173]	Bmx(h) (Homo sapiens)	%	94
C=CC(=O)Nc1ccc(Sc2ccnc(Nc3ccc(N4CCC(N5CCCC5)CC4)cc3)n2)cc1 [Compound 87]	Bmx(h) (Homo sapiens)	%	100
CC#CC(=O)Nc1ccc(Sc2ccnc(Nc3cccc(N4CCOCC4)c3)n2)cc1 [Compound 233]	Bmx(h) (Homo sapiens)	%	89
C=CC(=O)Nc1ccc(Sc2ccnc(Nc3cccc(N4CCOCC4)c3)n2)cc1 [Compound 77]	Bmx(h) (Homo sapiens)	%	100
CC(=O)Nc1ccc(Sc2nc(Nc3ccc(N4CCOCC4)cc3)ncc2C)cc1 [Compound 135]	Bmx(h) (Homo sapiens)	%	58
C=CC(=O)Nc1ccc(Sc2nc(Nc3ccc(NS(C)(=O)=O)cc3)ncc2C)cc1 [Compound 285]	Bmx(h) (Homo sapiens)	%	98

Below: the item to evaluate.
What measured inhibition at 0.5 µM goes with C=CC(=O)NCc1cccc(Sc2ccnc(Nc3ccc(N4CCOCC4)cc3)n2)c1 [Compound 112] ?
100

====

- TEST SYSTEM: UniProt:O60674
- Sequence (O60674 849-1124 limits assumed): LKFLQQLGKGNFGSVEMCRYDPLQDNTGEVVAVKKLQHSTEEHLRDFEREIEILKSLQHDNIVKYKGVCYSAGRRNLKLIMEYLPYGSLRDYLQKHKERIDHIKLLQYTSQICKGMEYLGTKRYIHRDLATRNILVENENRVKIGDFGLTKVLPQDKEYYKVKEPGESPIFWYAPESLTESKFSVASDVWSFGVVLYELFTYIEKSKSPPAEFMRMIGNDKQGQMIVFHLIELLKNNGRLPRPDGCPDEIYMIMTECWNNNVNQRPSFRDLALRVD
pIC50: −log10 of the molar value.
Would you mind telling me the reported pIC50 of each entry?

These solved cases illustrate the format of a correct answer.
MOLECULE	RESULT
CC#CC(=O)Nc1ccc(Sc2nc(Nc3ccc(N4CCOCC4)cc3)ncc2C)cc1 [Compound 125]	< 6.00
c1cc(Sc2ccc(Cn3cnnn3)cc2)nc(Nc2ccc(N3CCOCC3)cc2)n1 [Compound 109]	> 6.00

Look up pIC50 for the entries below, preserving their order.
1. O=C(/C=C/Cl)Nc1ccc(Sc2ccnc(Nc3ccc(N4CCOCC4)cc3)n2)cc1 [Compound 342]
2. C=CC(=O)Nc1cccc(Nc2nccc(Sc3ccccn3)n2)c1 [Compound 2]
3. COc1cc(Sc2ccnc(Nc3ccc(N4CCOCC4)cc3)n2)ccc1N [Compound 117]
4. C=CC(=O)Nc1ccc(Sc2ccnc(Nc3cccc(S(N)(=O)=O)c3)n2)cc1 [Compound 364]
5. CC(=O)Nc1ccc(Sc2nc(Nc3ccc(N4CCOCC4)cc3)ncc2C)cc1 [Compound 135]

1. < 6.00
2. < 6.00
3. < 6.00
4. < 6.00
5. < 6.00
